# procedure.text: Phase I study CXR1002-001: plasma pharmacokinetics (LC-MS/MS)
# Format: in vivo, human
# run.conditions: human, plasma, oral, 750 mg, Patient 027, 750 mg, person, plasma, 504 hr (Day 22); read-out: Concentration
property: concentration at 504 h
Quote the value and follow it with the unit of measurement.

Q: // lookup concentration at 504 h for O=C(O)C(F)(F)C(F)(F)C(F)(F)C(F)(F)C(F)(F)C(F)(F)C(F)(F)F
Result: 476 µM

###

# procedure.text: Phase I study CXR1002-001: plasma pharmacokinetics (LC-MS/MS)
# Format: in vivo, human
# run.conditions: human, plasma, oral, 1000 mg, Patient 040, 1000 mg, person, plasma, 842 hr; read-out: Concentration
property: concentration at 842 h
Quote the value and follow it with the unit of measurement.

Q: // lookup concentration at 842 h for O=C(O)C(F)(F)C(F)(F)C(F)(F)C(F)(F)C(F)(F)C(F)(F)C(F)(F)F [CXR1002]
Result: 626 µM

###

# procedure.text: Phase I study CXR1002-001: plasma pharmacokinetics (LC-MS/MS)
# Assay type: in vivo, human
# run.conditions: human, plasma, oral, 300 mg, Patient 011 Dose 300 mg; 171 hr; read-out: Concentration
property: concentration at 171 h (µM)
The figure you give is taken to be in µM; do not add the unit.

Q: // lookup concentration at 171 h for O=C(O)C(F)(F)C(F)(F)C(F)(F)C(F)(F)C(F)(F)C(F)(F)C(F)(F)F [CXR1002]
Result: 122

###

# procedure.text: Phase I study CXR1002-001: plasma pharmacokinetics (LC-MS/MS)
# Assay type: in vivo, human
# run.conditions: human, plasma, oral, 450 mg, Patient 015 Dose 450 mg; 192 hr (Day 9); read-out: Concentration
property: concentration at 192 h (µM)
The figure you give is taken to be in µM; do not add the unit.

Q: // lookup concentration at 192 h for O=C(O)C(F)(F)C(F)(F)C(F)(F)C(F)(F)C(F)(F)C(F)(F)C(F)(F)F
Result: 294

###

# procedure.text: Phase I study CXR1002-001: plasma pharmacokinetics (LC-MS/MS)
# Type: in vivo, human
# run.conditions: human, plasma, oral, 750 mg, Patient 028, 750 mg, person, plasma, 840 hr (Day 36); read-out: Concentration
# From the text: PK samples, PD (fasting) samples, blood glucose, and blood triglyceride samples, were taken over a 6-week period. Dose limiting toxicity (DLT) will be based on the toxicity assessments over the first 3-week period of the repeat dosing schedule. […]
property: concentration at 840 h
Quote the value and follow it with the unit of measurement.

Q: // lookup concentration at 840 h for O=C(O)C(F)(F)C(F)(F)C(F)(F)C(F)(F)C(F)(F)C(F)(F)C(F)(F)F [CXR1002]
Result: 682 µM

###

# procedure.text: Phase I study CXR1002-001: plasma pharmacokinetics (LC-MS/MS)
# Format: in vivo, human
# run.conditions: human, plasma, oral, 50 mg, Patient 004 Dose 50 mg; 24 hr (Day 2); read-out: Concentration
property: concentration at 24 hr (µM)
The figure you give is taken to be in µM; do not add the unit.

Q: // lookup concentration at 24 hr for O=C(O)C(F)(F)C(F)(F)C(F)(F)C(F)(F)C(F)(F)C(F)(F)C(F)(F)F
Result: 14.4

###

# procedure.text: Phase I study CXR1002-001: plasma pharmacokinetics (LC-MS/MS)
# Format: in vivo, human
# run.conditions: human, plasma, oral, 600 mg, Patient 024, 600 mg, person, plasma, 360 hr (Day 16); read-out: Concentration
property: concentration at 360 h (µM)
The figure you give is taken to be in µM; do not add the unit.

Q: // lookup concentration at 360 h for O=C(O)C(F)(F)C(F)(F)C(F)(F)C(F)(F)C(F)(F)C(F)(F)C(F)(F)F
Result: 647

###

# procedure.text: Phase I study CXR1002-001: plasma pharmacokinetics (LC-MS/MS)
# Format: in vivo, human
# run.conditions: human, plasma, oral, 450 mg, Patient 017 Dose 450 mg; 675 hr; read-out: Concentration
property: concentration at 675 h (µM)
The figure you give is taken to be in µM; do not add the unit.

Q: // lookup concentration at 675 h for O=C(O)C(F)(F)C(F)(F)C(F)(F)C(F)(F)C(F)(F)C(F)(F)C(F)(F)F
Result: 497

###

# procedure.text: Phase I study CXR1002-001: plasma pharmacokinetics (LC-MS/MS)
# Type: in vivo, human
# run.conditions: human, plasma, oral, 600 mg, Patient 020, 600 mg, person, plasma, 340 hr; read-out: Concentration
property: concentration at 340 h (µM)
The figure you give is taken to be in µM; do not add the unit.

Q: // lookup concentration at 340 h for O=C(O)C(F)(F)C(F)(F)C(F)(F)C(F)(F)C(F)(F)C(F)(F)C(F)(F)F
Result: 438

###

# procedure.text: Phase I study CXR1002-001: plasma pharmacokinetics (LC-MS/MS)
# Assay type: in vivo, human
# run.conditions: human, plasma, oral, 100 mg, Patient 005 Dose 100 mg; 842 hr; read-out: Concentration
property: concentration at 842 h
Quote the value and follow it with the unit of measurement.

Q: // lookup concentration at 842 h for O=C(O)C(F)(F)C(F)(F)C(F)(F)C(F)(F)C(F)(F)C(F)(F)C(F)(F)F
Result: 80 µM

###

# procedure.text: Phase I study CXR1002-001: plasma pharmacokinetics (LC-MS/MS)
# Type: in vivo, human
# run.conditions: human, plasma, oral, 300 mg, Patient 011 Dose 300 mg; 675 hr; read-out: Concentration
property: concentration at 675 h (µM)
The figure you give is taken to be in µM; do not add the unit.

Q: // lookup concentration at 675 h for O=C(O)C(F)(F)C(F)(F)C(F)(F)C(F)(F)C(F)(F)C(F)(F)C(F)(F)F
Result: 304

###

# procedure.text: Phase I study CXR1002-001: plasma pharmacokinetics (LC-MS/MS)
# Assay type: in vivo, human
# run.conditions: human, plasma, po, 1000 mg, Patient 041, 1000 mg weekly oral dose, Time 672 hr (Day 29); read-out: Concentration (plasma level)
property: concentration at 672 hr (µM)
The figure you give is taken to be in µM; do not add the unit.

Q: // lookup concentration at 672 hr for O=C(O)C(F)(F)C(F)(F)C(F)(F)C(F)(F)C(F)(F)C(F)(F)C(F)(F)F [CXR1002]
Result: 670

###

# procedure.text: Phase I study CXR1002-001: plasma pharmacokinetics (LC-MS/MS)
# Assay type: in vivo, human
# run.conditions: human, plasma, oral, 100 mg, Patient 006 Dose 100 mg; 4 hr; read-out: Concentration
property: concentration at 4 h (µM)
The figure you give is taken to be in µM; do not add the unit.

Q: // lookup concentration at 4 h for O=C(O)C(F)(F)C(F)(F)C(F)(F)C(F)(F)C(F)(F)C(F)(F)C(F)(F)F [CXR1002]
Result: 24.6

###

# procedure.text: Phase I study CXR1002-001: plasma pharmacokinetics (LC-MS/MS)
# Assay type: in vivo, human
# run.conditions: human, plasma, oral, 50 mg, Patient 001 Dose 50 mg; Day 144
property: concentration at 144 day (µM)
The figure you give is taken to be in µM; do not add the unit.

Q: // lookup concentration at 144 day for O=C(O)C(F)(F)C(F)(F)C(F)(F)C(F)(F)C(F)(F)C(F)(F)C(F)(F)F [CXR1002]
Result: 226

###

# procedure.text: Phase I study CXR1002-001: plasma pharmacokinetics (LC-MS/MS)
# Type: in vivo, human
# run.conditions: human, plasma, oral, 750 mg, Patient 026, 750 mg, person, plasma, 675 hr; read-out: Concentration
property: concentration at 675 h
Quote the value and follow it with the unit of measurement.

Q: // lookup concentration at 675 h for O=C(O)C(F)(F)C(F)(F)C(F)(F)C(F)(F)C(F)(F)C(F)(F)C(F)(F)F
Result: 655 µM

###

# procedure.text: Phase I study CXR1002-001: plasma pharmacokinetics (LC-MS/MS)
# Type: in vivo, human
# run.conditions: human, plasma, oral, 200 mg, Patient 010 Dose 200 mg; 674 hr; read-out: Concentration
property: concentration at 674 h (µM)
The figure you give is taken to be in µM; do not add the unit.

Q: // lookup concentration at 674 h for O=C(O)C(F)(F)C(F)(F)C(F)(F)C(F)(F)C(F)(F)C(F)(F)C(F)(F)F [CXR1002]
Result: 193

###

# procedure.text: Phase I study CXR1002-001: plasma pharmacokinetics (LC-MS/MS)
# Format: in vivo, human
# run.conditions: human, plasma, oral, 50 mg, Patient 001 Dose 50 mg; 0.25 hr
property: concentration at 0.25 h (nM)
The figure you give is taken to be in nM; do not add the unit.

Q: // lookup concentration at 0.25 h for O=C(O)C(F)(F)C(F)(F)C(F)(F)C(F)(F)C(F)(F)C(F)(F)C(F)(F)F
Result: 350
